molecular target: Vitamin K-dependent protein C (Homo sapiens, UniProt P04070); assay: Inhibitory activity against activated protein C was determined
Sequence (P04070 43-197 limits assumed): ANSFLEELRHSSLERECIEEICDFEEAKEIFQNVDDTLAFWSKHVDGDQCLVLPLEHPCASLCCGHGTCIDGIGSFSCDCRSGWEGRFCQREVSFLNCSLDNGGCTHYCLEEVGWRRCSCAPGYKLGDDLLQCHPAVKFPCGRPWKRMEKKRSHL
Sequence (P04070 212-461 limits assumed): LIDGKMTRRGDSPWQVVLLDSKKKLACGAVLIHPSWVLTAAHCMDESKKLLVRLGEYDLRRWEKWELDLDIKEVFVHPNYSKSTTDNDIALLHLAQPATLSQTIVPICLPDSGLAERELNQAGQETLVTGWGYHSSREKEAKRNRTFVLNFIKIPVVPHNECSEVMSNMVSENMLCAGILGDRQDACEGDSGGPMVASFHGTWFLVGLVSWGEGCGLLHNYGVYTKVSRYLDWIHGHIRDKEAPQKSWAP
pIC50: −log10 of the molar value.
Reported pIC50 by item:

CN(C)C(=N)c1ccc(NC(=O)c2cc(C(F)(F)F)nn2-c2cc3ccccc3cc2F)c(F)c1 < 5.00
Cc1cc(C(=O)Nc2ccc(C(=N)N(C)C)cc2F)n(-c2cc3ccccc3cc2F)n1 < 5.00

Here's the next entry for you.
Given the entry Cc1cc(C(=O)Nc2ccc(C(=N)N(C)C)cc2F)n(-c2ccc3cc(Cl)ccc3c2)n1 , what pIC50 was observed with Vitamin K-dependent protein C (Homo sapiens, UniProt P04070)?
< 5.00

---

Entries with their measured IC50, system Tissue-type plasminogen activator (Homo sapiens):

CN(C)C(=N)c1ccc(NC(=O)c2cc(C(F)(F)F)nn2-c2cc3ccccc3cc2F)c(F)c1 > 10 µM
Cc1cc(C(=O)Nc2ccc(C(=N)N(C)C)cc2F)n(-c2cc3ccccc3cc2F)n1 > 10 µM

Continue with the next molecule.
Tell me reported IC50 for Cc1cc(C(=O)Nc2ccc(C(=N)N(C)C)cc2F)n(-c2ccc3cc(Cl)ccc3c2)n1 , tested with Tissue-type plasminogen activator (Homo sapiens).
Sequence (P00750 whole entry): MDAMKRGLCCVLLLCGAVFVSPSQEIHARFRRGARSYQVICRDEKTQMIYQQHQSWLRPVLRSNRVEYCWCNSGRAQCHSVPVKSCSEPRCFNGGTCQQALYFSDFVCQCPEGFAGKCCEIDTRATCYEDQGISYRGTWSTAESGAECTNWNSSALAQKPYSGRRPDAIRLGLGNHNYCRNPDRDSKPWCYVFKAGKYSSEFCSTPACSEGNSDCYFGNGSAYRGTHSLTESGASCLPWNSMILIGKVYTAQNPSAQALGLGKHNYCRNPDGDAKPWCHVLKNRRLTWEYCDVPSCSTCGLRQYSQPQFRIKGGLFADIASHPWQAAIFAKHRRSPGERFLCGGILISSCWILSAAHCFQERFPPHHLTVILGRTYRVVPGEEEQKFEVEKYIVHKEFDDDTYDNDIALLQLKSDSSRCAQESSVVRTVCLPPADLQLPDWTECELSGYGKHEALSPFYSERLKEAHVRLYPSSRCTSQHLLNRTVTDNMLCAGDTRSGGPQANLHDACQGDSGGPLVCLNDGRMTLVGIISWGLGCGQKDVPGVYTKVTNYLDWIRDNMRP
> 10 µM

---

molecular target: Prothrombin (Homo sapiens, UniProt P00734)
parameter: IC50

Query IC50 on Prothrombin (Homo sapiens, UniProt P00734) for Cc1cc(C(=O)Nc2ccc(C(=N)N(C)C)cc2F)n(-c2ccc3cc(Cl)ccc3c2)n1
> 10 µM

---

target: Coagulation factor X (Homo sapiens, UniProt P00742)
Sequence (P00742 41-179 limits assumed): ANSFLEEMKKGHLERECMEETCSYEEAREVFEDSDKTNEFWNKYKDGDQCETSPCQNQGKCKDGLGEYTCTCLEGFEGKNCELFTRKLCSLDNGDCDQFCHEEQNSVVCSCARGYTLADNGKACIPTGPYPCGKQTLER
Sequence (P00742 235-488 limits assumed): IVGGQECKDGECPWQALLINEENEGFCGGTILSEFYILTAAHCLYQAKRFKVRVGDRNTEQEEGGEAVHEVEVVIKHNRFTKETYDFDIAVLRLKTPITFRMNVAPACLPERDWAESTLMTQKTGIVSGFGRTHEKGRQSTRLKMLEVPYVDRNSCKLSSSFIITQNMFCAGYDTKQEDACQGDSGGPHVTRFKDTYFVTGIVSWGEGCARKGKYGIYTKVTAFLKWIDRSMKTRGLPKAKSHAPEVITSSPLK
pIC50: −log10 of the molar value.
parameter: pIC50

A selection of reference data follows.
N=C(c1ccc(NC(=O)c2nnnn2-c2ccc3cc(Cl)ccc3c2)c(F)c1)N1CCCC1 8.15
CNC(=N)c1ccc(NC(=O)c2cc(C)nn2-c2cc3ccccc3cc2F)c(F)c1 6.94
Cc1cc(C(=O)Nc2ccc(C(=N)N3CCCC3)cc2F)n(-c2cc3ccccc3cc2S(C)(=O)=O)n1 7.82
Cc1cc(C(=O)Nc2ccc(C(=N)N(C)C)cc2F)n(-c2cc3ccccc3cc2S(C)(=O)=O)n1 7.92
Cc1cc(C(=O)Nc2ccc(C3=NCCN3C)cc2F)n(-c2cc3ccccc3cc2S(C)(=O)=O)n1 7.85

(I) N=C(c1ccc(NC(=O)c2nnnn2-c2cc3ccccc3cc2F)c(F)c1)N1CCCC1
(II) Cc1cc(C(=O)Nc2cccc(C(=N)N(C)C)c2)n(-c2cc3ccccc3cc2F)n1
(III) N=C(c1ccc(NC(=O)c2cc(C(F)(F)F)nn2-c2ccc3cc(Cl)ccc3c2)c(F)c1)N1CCCCC1
(IV) N=C(c1ccc(NC(=O)c2cc(C(F)(F)F)nn2-c2cc3ccccc3cc2F)c(F)c1)N1CCCCC1
// ranking: key=pIC50, reverse=True Reply with the labels, ordered as the question asks.
III, IV, I, II
(III: 8.40, IV: 7.96, I: 7.62, II: 6.32)

(1) CN(C)C(=N)c1ccc(NC(=O)c2nnnn2-c2cc3ccccc3cc2F)c(F)c1
(2) Cc1cc(C(=O)Nc2cc(C(=N)N(C)C)cs2)n(-c2cc3ccccc3cc2F)n1
(3) N=C(c1ccc(NC(=O)c2cc(C(F)(F)F)nn2-c2cc3ccccc3cc2F)c(F)c1)N1CCCC1
Returns the items ordered by pIC50, from maximum to minimum. Please respond by ranking the labels in the order requested.
3, 1, 2

(a) N=C(c1ccc(NC(=O)c2nnnn2-c2cc3ccccc3cc2F)c(F)c1)N1CCCCC1
(b) N=C(c1ccc(NC(=O)c2cc(C(F)(F)F)nn2-c2ccc3cc(Cl)ccc3c2)c(F)c1)N1CCCC1
(c) Cc1cc(C(=O)Nc2ccc(C(=N)N(C)C)cc2F)n(-c2ccc3cc(Cl)ccc3c2)n1
Rank ascending by pIC50. Please reply with the labels ordered as requested. Many thanks.
a, c, b

---

experiment: Bioavailability in rat; type: ADME, organism-based; settings: in vivo
parameter: bioavailability (%)

CN(C)C(=N)c1ccc(NC(=O)c2cc(C(F)(F)F)nn2-c2cc3ccccc3cc2F)c(F)c1 46.9

(1) Cc1cc(C(=O)Nc2ccc(C3=NCCN3C)cc2F)n(-c2cc3ccccc3cc2F)n1
(2) Cc1cc(C(=O)Nc2ccc(C(=N)N(C)C)cc2F)n(-c2cc3ccccc3cc2F)n1
(3) Cc1cc(C(=O)Nc2ccc(C(=N)N(C)C)cc2F)n(-c2ccc3cc(Cl)ccc3c2)n1
Order field: bioavailability | Direction: descending (largest first) // rank by listing labels in the order requested
1, 2, 3

---

target: Coagulation factor X (Homo sapiens, UniProt P00742)
parameter: IC50 (nM)

Cc1cc(C(=O)Nc2ccc(C(=N)N3CCCCC3)cc2F)n(-c2cc3ccccc3cc2F)n1 8

(P) N=C(c1ccc(NC(=O)c2nnnn2-c2ccc3cc(Cl)ccc3c2)c(F)c1)N1CCCCC1
(Q) Cc1cc(C(=O)Nc2ccc(C(=N)N(C)CCN(C)C)cc2F)n(-c2cc3ccccc3cc2F)n1
(R) COCCN(C)C(=N)c1ccc(NC(=O)c2cc(C)nn2-c2cc3ccccc3cc2F)c(F)c1
(S) CN1CCN=C1c1ccc(NC(=O)c2cc(C(F)(F)F)nn2-c2ccc3cc(Cl)ccc3c2)c(F)c1
Number of compounds to sort: 4. Sort criterion: IC50, ascending. # list labels per requested ordering
S, P, Q, R
(S: 2 nM, P: 8 nM, Q: 48 nM, R: 110 nM)

---

molecular target: UniProt P00742; assay: Binding affinity for human Coagulation factor X
parameter: Ki (nM)

Cc1cc(C(=O)Nc2ccc(C(=N)N(C)C)cc2F)n(-c2ccc3cc(Cl)ccc3c2)n1 0.7

(a) CN(C)C(=N)c1ccc(NC(=O)c2nnnn2-c2ccc3cc(Cl)ccc3c2)c(F)c1
(b) Cc1cc(C(=O)Nc2ccc(C3=NCCN3C)cc2F)n(-c2cc3ccccc3cc2F)n1
Parameter metric = Ki. Return the lower-valued option from a and b . Please identify the chosen entry by its label.
a
(a: 0.7 nM, b: 8 nM)

---

assay: Half-life determined in rat; assay type: ADME, organism-based; conditions: in vivo
parameter: half-life (h)

Cc1cc(C(=O)Nc2ccc(C(=N)N(C)C)cc2F)n(-c2ccc3cc(Cl)ccc3c2)n1 18

(1) CN(C)C(=N)c1ccc(NC(=O)c2cc(C(F)(F)F)nn2-c2cc3ccccc3cc2F)c(F)c1
(2) Cc1cc(C(=O)Nc2ccc(C3=NCCN3C)cc2F)n(-c2cc3ccccc3cc2F)n1
Exercise: compare 1 and 2 ; which one has the greater half-life? Reply with the label of the item you choose.
1

---

assay: Volume of distribution in rat; format: ADME, organism-based; conditions: in vivo
parameter: Vd (L/kg)

(a) Cc1cc(C(=O)Nc2ccc(C3=NCCN3C)cc2F)n(-c2cc3ccccc3cc2F)n1
(b) Cc1cc(C(=O)Nc2ccc(C(=N)N(C)C)cc2F)n(-c2ccc3cc(Cl)ccc3c2)n1
(c) CN(C)C(=N)c1ccc(NC(=O)c2cc(C(F)(F)F)nn2-c2cc3ccccc3cc2F)c(F)c1
Hey, quick one: sort these by Vd, low to high? State the ranking by listing the labels in the requested order.
a, c, b
